Parameter: inhibition at 10 µM. Scope: all listed entries.
- System: NCI-H460
- protocol notes: Antiproliferative activity against H460 cell line at 10 uM
- Assay type: functional
- measurement context: Homo sapiens
The reply should be a number in %, with the unit left off.

In the examples that follow, each entry is paired with its recorded inhibition at 10 µM.
substance smiles	output unit	inhibition at 10 µM
CS[C@H](C[C@@H]1C/C=C/C=C(/C#N)[C@H](O)[C@@H](C)C[C@H](C)C[C@H](C)C[C@H](C)[C@@H](O)CC(=O)O1)C(=O)O	%	79
C[C@@H]1C[C@H](C)C[C@H](C)[C@@H](O)CC(=O)O[C@H]([C@H](C)[C@H](C)C(=O)O)C/C=C/C=C(/C#N)[C@H](O)[C@@H](C)C1	%	3
C[C@@H]1C[C@H](C)C[C@H](C)[C@@H](O)CC(=O)O[C@H](C[C@@H](C)C(=O)O)C/C=C/C=C(/C#N)[C@H](O)[C@@H](C)C1	%	49
C[C@@H]1C[C@H](C)C[C@H](C)[C@@H](O)CC(=O)O[C@H]([C@@H]2CC[C@H]2C(=O)O)C/C=C/C=C(/C#N)[C@H](O)[C@@H](C)C1	%	7

With NCI-H460 as the test system, provide measured inhibition at 10 µM for this compound: "C[C@@H]1C[C@H](C)C[C@H](C)[C@@H](O)CC(=O)O[C@H](C[C@H](C)C(=O)O)C/C=C/C=C(/C#N)[C@H](O)[C@@H](C)C1"
84

Name the recorded inhibition at 10 µM of "C[C@@H]1C[C@H](C)C[C@H](C)[C@@H](O)CC(=O)O[C@H]([C@H](C)CC(=O)O)C/C=C/C=C(/C#N)[C@H](O)[C@@H](C)C1" , assay system NCI-H460.
38

Specify inhibition at 10 µM for "C[C@@H]1C[C@H](C)C[C@H](C)[C@@H](O)CC(=O)O[C@H]([C@@H]2CCC[C@H]2C(=O)O)C/C=C/C=C(/C#N)[C@H](O)[C@@H](C)C1" , system NCI-H460.
4

The reported numbers originate from ChEMBL document CHEMBL1139729.
